target: T1, human MSLN-FL-his protein (human, UniProt Q13421 296-580); assay: competitive ELISA; row Tab108 (R3); also: test concentration or dose not given here
T1 construct: made in HEK293E cells, purified on nickel column; also called hMSLN-FL-his; human MSLN full-length protein; not shown: His tag
T1 sequence (Q13421 other isoform, or with tags, fused parts or gaps): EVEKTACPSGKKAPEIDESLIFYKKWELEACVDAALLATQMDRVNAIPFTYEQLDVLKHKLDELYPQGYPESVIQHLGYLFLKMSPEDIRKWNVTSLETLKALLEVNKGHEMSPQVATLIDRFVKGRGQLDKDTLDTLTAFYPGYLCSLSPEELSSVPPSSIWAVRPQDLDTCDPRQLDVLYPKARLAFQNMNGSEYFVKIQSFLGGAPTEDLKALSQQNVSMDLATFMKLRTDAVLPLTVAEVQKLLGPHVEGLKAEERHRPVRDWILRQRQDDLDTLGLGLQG

{"binder": "S009-F2.47.1 (antibody, human IgG1, kappa, V domains shown, human-murine chimeric antibody, human IgG1/kappa constant regions) VH: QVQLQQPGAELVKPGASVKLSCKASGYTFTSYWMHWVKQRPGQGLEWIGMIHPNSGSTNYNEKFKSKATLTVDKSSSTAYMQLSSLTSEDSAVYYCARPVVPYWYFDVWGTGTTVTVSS VL: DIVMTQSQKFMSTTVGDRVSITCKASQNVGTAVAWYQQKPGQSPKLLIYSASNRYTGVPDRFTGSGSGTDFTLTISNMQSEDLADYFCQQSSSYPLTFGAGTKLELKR", "competition rate (%)": -158}
